Target: mouse ADAMTS7 (Mus musculus, UniProt Q68SA9, E373Q)
Construct: Full-length mouse Adamts7 1-1857 (Uniprot Q68SA9, WT or E373Q catalytic mutant); expressed in transfected cells; host or cells: Human Coronary Artery Smooth Muscle Cells (HCA-SMC, Lonza), adenovirus 50 MOI
Sequence (Q68SA9 221-1657 E373Q): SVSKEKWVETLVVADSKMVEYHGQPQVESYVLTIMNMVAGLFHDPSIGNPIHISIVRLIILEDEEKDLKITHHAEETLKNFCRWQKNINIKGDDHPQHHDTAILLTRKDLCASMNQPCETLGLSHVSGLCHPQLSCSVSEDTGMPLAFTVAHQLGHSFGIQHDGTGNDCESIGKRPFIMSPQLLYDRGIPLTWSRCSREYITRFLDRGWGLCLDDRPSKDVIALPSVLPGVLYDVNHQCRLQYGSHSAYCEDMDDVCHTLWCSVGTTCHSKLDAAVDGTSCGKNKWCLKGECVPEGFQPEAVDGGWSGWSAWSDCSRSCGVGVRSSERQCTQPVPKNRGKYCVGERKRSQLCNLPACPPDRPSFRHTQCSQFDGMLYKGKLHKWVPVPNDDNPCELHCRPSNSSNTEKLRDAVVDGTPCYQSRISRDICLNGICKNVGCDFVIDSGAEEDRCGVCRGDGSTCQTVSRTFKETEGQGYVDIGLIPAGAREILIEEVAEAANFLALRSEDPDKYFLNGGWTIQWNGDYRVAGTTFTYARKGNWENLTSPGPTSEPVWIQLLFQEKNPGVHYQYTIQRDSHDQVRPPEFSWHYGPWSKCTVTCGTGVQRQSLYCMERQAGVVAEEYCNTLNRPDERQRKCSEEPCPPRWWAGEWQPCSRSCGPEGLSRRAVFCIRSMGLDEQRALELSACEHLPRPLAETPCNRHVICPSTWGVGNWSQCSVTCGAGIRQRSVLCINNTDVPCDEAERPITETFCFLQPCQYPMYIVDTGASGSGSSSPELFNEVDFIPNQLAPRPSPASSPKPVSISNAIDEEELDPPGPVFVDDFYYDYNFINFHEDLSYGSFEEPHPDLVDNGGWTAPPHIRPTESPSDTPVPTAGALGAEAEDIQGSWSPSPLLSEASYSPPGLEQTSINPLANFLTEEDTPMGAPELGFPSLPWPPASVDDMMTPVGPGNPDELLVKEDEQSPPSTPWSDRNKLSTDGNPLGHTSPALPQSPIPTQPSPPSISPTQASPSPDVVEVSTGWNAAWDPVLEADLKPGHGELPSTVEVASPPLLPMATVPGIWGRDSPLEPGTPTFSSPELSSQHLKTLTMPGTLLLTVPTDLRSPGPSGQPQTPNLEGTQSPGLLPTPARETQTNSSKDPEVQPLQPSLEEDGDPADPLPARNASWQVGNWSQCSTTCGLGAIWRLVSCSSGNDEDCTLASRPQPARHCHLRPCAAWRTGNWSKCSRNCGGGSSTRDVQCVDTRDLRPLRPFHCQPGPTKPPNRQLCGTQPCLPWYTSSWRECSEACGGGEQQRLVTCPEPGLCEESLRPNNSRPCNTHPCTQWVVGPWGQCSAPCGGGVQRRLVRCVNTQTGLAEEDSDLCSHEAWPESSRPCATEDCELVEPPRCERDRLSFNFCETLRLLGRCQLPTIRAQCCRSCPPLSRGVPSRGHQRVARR
Experiment: TMT10 TAILS N-terminomics, SMC1 experiment (Ad-mADAMTS7 WT vs EQ vs Luc, technical replicates, trypsin digest)
Format: cell-based
Settings: TAILS neo-N-terminal peptide abundance; log fold change, Ad-mADAMTS7 EQ over Luc
Square brackets hold non-standard residues; d marks the D form. Ends that are not written are not given here.
measurementLabel: logFC.mEQ.over.Luc

- substance: "NID2_467 (LEDNIGSNTEVFTYNAANKETCEHNHR; listed as Homo sapiens)"
  logFC.mEQ.over.Luc: "−0.09"
- substance: "FN1_40 (QSPVAVSQSKPGCYDNGKHYQINQQWER; listed as Homo sapiens)"
  logFC.mEQ.over.Luc: "−0.40"

1: HSPG2_3250 (SPLPWQHR; listed as Homo sapiens)
2: COL1A2_270 (VGNAGPAGPAGPR; listed as Homo sapiens)
Inquiry: Between 1 and 2 , whose measured logFC.mEQ.over.Luc reads higher? Identify your selection by its label.
Reply text: 2
(2: 0.70, 1: 0.00)

1: COL1A2_91 (GPMGLMGPR; listed as Homo sapiens)
2: IGFBP3_31 (SAGLGPVVR; listed as Homo sapiens)
Inquiry: Between 1 and 2 , whose measured logFC.mEQ.over.Luc reads higher? Identify your selection by its label.
Reply text: 2

A: FN1_1656 (SSSPVTGYR; listed as Homo sapiens)
B: COL1A2_1127 (SLRPKDYEVDATLKSLNNQIETLLTPEGSR; listed as Homo sapiens)
Inquiry: Could you tell me which of these two has the smaller logFC.mEQ.over.Luc figure? First: A Second: B Identify your selection by its label.
Reply text: B

1: COL1A2_960 (AGAPGPHGPVGPAGKHGNR; listed as Homo sapiens)
2: MAP4_816 (VASTGPSSR; listed as Homo sapiens)
3: PXDN_1393 (QKTITDLR; listed as Homo sapiens)
Inquiry: rank_up(items): orders items by reported logFC.mEQ.over.Luc in ascending numerical order. Form entry: ranked labels (order as requested).
Reply text: 1, 2, 3

A: IGFBP3_32 (AGLGPVVR; listed as Homo sapiens)
B: POSTN_413 (FSDDTLSMDQR; listed as Homo sapiens)
C: IGFBP3_200 (FSSESKR; listed as Homo sapiens)
Inquiry: Arrange these substances by their logFC.mEQ.over.Luc, starting with the largest number. Form entry: ranked labels (order as requested).
Reply text: A, B, C

1: FN1_36 (MVQPQSPVAVSQSKPGCYDNGKHYQINQQWER; listed as Homo sapiens)
2: GSN_413 (HIANVER; listed as Homo sapiens)
3: LASP1_123 (HEEFEKSR; listed as Homo sapiens)
4: LOXL2_318 (AYKPEQPLVR; listed as Homo sapiens)
5: POSTN_790 (FIEGGDGHLFEDEEIKR; listed as Homo sapiens)
Inquiry: rank_up(items): orders items by reported logFC.mEQ.over.Luc in ascending numerical order. Form entry: ranked labels (order as requested).
Reply text: 3, 5, 2, 4, 1

A: FN1_47 ([code q]SKPGCYD[code n]GKHYQINQQWER; not fully specified; listed as Homo sapiens)
B: COL1A2_113 (FQGPAGEPGEPGQTGPAGAR; listed as Homo sapiens)
C: COL18A1_1505 (LQPPVVQLHDSNPYPR; listed as Homo sapiens)
Inquiry: Arrange these substances by their logFC.mEQ.over.Luc, starting with the largest number. Form entry: ranked labels (order as requested).
Reply text: A, C, B

1: LTBP1_540 (HQQVIPHVYPVAAKTQLGR; listed as Homo sapiens)
2: CDC37_43 (FQKEKEELDR; listed as Homo sapiens)
3: LTBP2_485 (SVQIHQVAQVR; listed as Homo sapiens)
4: HSPG2_3542 (IAHVELADAGQYR; listed as Homo sapiens)
Inquiry: Arrange these substances by their logFC.mEQ.over.Luc, starting with the largest number. Form entry: ranked labels (order as requested).
Reply text: 1, 4, 2, 3

1: FN1_1731 (FTDVDVDSIKIAWESPQGQVSR; listed as Homo sapiens)
2: NID2_951 (YAYPGAR; listed as Homo sapiens)
Inquiry: Could you tell me which of these two has the smaller logFC.mEQ.over.Luc figure? First: 1 Second: 2 Identify your selection by its label.
Reply text: 2
(2: −0.58, 1: −0.11)
